The origin of these recorded values is patent US8232288B2.

- study.target: B1R receptor of the rat (rB1R) (Rattus norvegicus)
- Construct: expressed in transfected cells; host or cells: CHO K1 cells
- Sequence (P97583 1-337): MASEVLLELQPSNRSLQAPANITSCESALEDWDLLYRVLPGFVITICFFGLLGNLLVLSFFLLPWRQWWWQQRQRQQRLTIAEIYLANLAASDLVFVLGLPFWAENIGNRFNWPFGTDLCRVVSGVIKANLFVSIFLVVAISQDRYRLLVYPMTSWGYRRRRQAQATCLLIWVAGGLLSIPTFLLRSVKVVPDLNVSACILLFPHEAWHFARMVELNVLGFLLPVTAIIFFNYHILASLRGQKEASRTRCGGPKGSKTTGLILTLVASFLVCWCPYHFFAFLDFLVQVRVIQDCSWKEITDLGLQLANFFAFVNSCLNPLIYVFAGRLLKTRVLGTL
- test: Functional investigation on the bradykinin receptor 1 (B1R), FLIPR Ca2+ assay, rB1R cells
- Assay type: cell-based
measured.metric: inhibition at 10 µM (%)
Numbers only, in %.

Dear colleague, could you please provide inhibition at 10 µM for the compounds listed below?
1. CN(Cc1nc2cccc(C(=O)N3CCC4(CC3)CCN(c3ccncc3)CC4)c2[nH]1)C(=O)c1ccccc1Cl
2. COc1cc(C)c(S(=O)(=O)N(C)C(C)c2nc3cccc(C(=O)N4CCC5(CC4)CCN(S(=O)(=O)c4ccccc4C#N)CC5)c3[nH]2)c(C)c1 (centres unmarked)
3. COc1cc(C)c(S(=O)(=O)N(C)Cc2nc3cccc(C(=O)N4CCC5(CCC(Oc6ccncc6)CC5)CC4)c3[nH]2)c(C)c1
4. COc1cc(C)c(S(=O)(=O)N(C)C(C)c2nc3cccc(C(=O)N4CCC5(CCN(Cc6ccc(OC)c(F)c6)CC5)CC4)c3[nH]2)c(C)c1 (centres unmarked)
5. COc1cc(C)c(S(=O)(=O)N(C)CCc2nc3c(C(=O)N4CCC5(CC4)CCN(c4ccncc4)CC5)cccc3[nH]2)c(C)c1
6. CN(Cc1nc2cccc(C(=O)N3CCC4(CC3)CCN(c3ccncc3)CC4)c2[nH]1)S(=O)(=O)c1cccc2ccccc12
7. Cc1cccc(Cl)c1S(=O)(=O)N(C)Cc1nc2cccc(C(=O)N3CCC4(CC3)CCN(c3ccncc3)C4)c2[nH]1

1. 102
2. 103
3. 86
4. 89
5. 100
6. 96
7. 97

Dear colleague, could you please provide inhibition at 10 µM for the compounds listed below?
1. COc1cc(C)c(S(=O)(=O)N(C)c2nc3cccc(C(=O)N4CCC5(CC4)CCN(c4ccncc4)CC5)c3n2C)c(C)c1
2. COc1cc(C)c(S(=O)(=O)N(C)C(C)c2nc3cccc(C(=O)N4CCC5(CCN(Cc6ccccn6)CC5)CC4)c3[nH]2)c(C)c1 (centres unmarked)
3. CN(Cc1nc2cccc(C(=O)N3CCC4(CC3)CCN(c3ccncc3)CC4)c2[nH]1)S(=O)(=O)c1ccccc1C(F)(F)F
4. COc1cc(C)c(S(=O)(=O)N(C)C(C)c2nc3cccc(C(=O)N4CCC5(CCN(Cc6cc(F)ccc6F)CC5)CC4)c3[nH]2)c(C)c1 (centres unmarked)
5. COc1cc(C)c(S(=O)(=O)N(C)C(C)c2nc3cccc(C(=O)N4CCC5(CCN(C(=O)c6cccnc6SC)CC5)CC4)c3[nH]2)c(C)c1 (centres unmarked)
6. COc1cc(C)c(S(=O)(=O)N(C)C(C)c2nc3cccc(C(=O)N4CCC5(CCN(Cc6c[nH]c(C)n6)CC5)CC4)c3[nH]2)c(C)c1 (centres unmarked)

90
89
99
104
89
101
